- assayText: HepG2 cell viability effects, profiling panel, calcein-AM fluorescence, 48 h, basal (AID 1164); further: test concentration not given here
- runConditions: higher = more signal

compound	z-score
CS(=O)(=O)CCOC(=O)C1=CC(CCCO)=CC(c2cccs2)N(Cc2cc3c(cc2Br)OCO3)C=C1C(=O)OCCS(C)(=O)=O (centres undefined)	0.392
COCCOC(=O)N1C(=O)[C@@]2(c3cc(C#CCC(C(=O)OC)C(=O)OC)ccc31)[C@H](C(=O)N1CCN(c3ncccn3)CC1)[C@H]1C(=O)O[C@H](c3ccccc3)[C@H](c3ccccc3)N1[C@@H]2c1ccc(OCCO)cc1	0.674
COC(=O)C1=CC(CCCO)=CC(C2CC2)N(Cc2sc3ccccc3c2Cl)C=C1C(=O)OC (centres undefined)	-0.514
O=C1O[C@H](c2ccccc2)[C@H](c2ccccc2)N2[C@H]1[C@@H](C(=O)Nc1nc3ccccc3s1)[C@]1(C(=O)Nc3ccccc31)[C@H]2c1ccc(O)cc1	-1.99
C=CC[C@@]1(C(=O)O)N=C(c2ccc(OCCCO)cc2)O[C@@H]1c1ccccc1N=[N+]=[N-]	0.47
CC(C)=CCCC(C)=CC(O)C1C=CC2C(=O)N(c3ccccc3)C(=O)C2N1Nc1ccccc1 (centres undefined)	-0.731
O=C(O)[C@H]1C[C@H]2C(=O)NCC(=O)N2[C@H]1c1ccc(O)cc1	0.752
CC(C)C[C@@H]1NC(=O)[C@@H]2C[C@H](C(=O)NCCCCCC[N+](C)(C)C)[C@H](c3ccc(O)cc3)N2C1=O	0.145
N#Cc1ccc(NN2C(C(O)c3cccs3)C=CC3C(=O)N(c4ccccc4)C(=O)C32)cc1 (centres undefined)	1.01
CCOC(=O)C1=CCC(c2ccc(C#N)cc2)N(S(=O)(=O)c2ccc(C)cc2)C1 (centres undefined)	0.109
NCCCCCCNC(=O)[C@H]1C[C@H]2C(=O)NCC(=O)N2[C@H]1c1cccc(OCCO)c1	0.674
CC(C)C(=C=CC[C@H](O)c1ccccc1OCCO)C[C@H](O)c1ccccn1	1.33
O=C1OCC=C[C@H]2OC34C=CCN(c5ccc6ccccc6c5)C(=O)[C@H]3N(CCCO)C(=O)[C@@H]4[C@@H]12 (some centres undefined)	0.0068
CC(=O)NCCCC[C@@H]1NC(=O)[C@H]2C[C@@H](C(=O)NCCCCCC[N+](C)(C)C)[C@@H](c3cccc(OCCO)c3)N2C1=O	-0.827
Cc1ccc(S[C@]2(C(=O)NCc3ccccc3)CC(=O)N(Cc3ccccc3)[C@@H]2c2ccc(CO)cc2)cc1	0.0772
CN(C)C(=O)[C@@]1(CCC(=O)OC(C)(C)C)N=C(c2ccc(OCCCO)cc2)O[C@H]1c1ccccc1	-0.517
COCCOC(=O)N1C(=O)[C@@]2(c3cc(C#CCNC(N)=O)ccc31)[C@H](c1ccccc1OCCO)N1[C@H](c3ccccc3)[C@H](c3ccccc3)OC(=O)[C@H]1[C@@H]2C(N)=O	-0.617
NC(=O)NCC#Cc1ccc2c(c1)[C@]1(C(=O)N2)[C@H](C(=O)NC[C@H](O)c2ccccc2)[C@H]2C(=O)O[C@H](c3ccccc3)[C@H](c3ccccc3)N2[C@@H]1c1ccc(O)cc1	-0.284
C=CCN1C(=O)[C@]2(O[C@H](CCO)[C@@H]([Si](C)(C)c3ccc(OC)cc3)[C@@H]2C)c2cc(NC(=O)[C@H](C)O)ccc21	-1.92

====

Listed molecules paired with reported composite z-score
- System: Inhibin beta A chain (activin A)
- assayText: INHBA (activin A) binders on microarrays, primary screen, biochemical, small-molecule microarray, 635 nm fluorescence scan (AID 1107);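 further: mouse activin A protein probed at 4.33 µg/mL on printed slides; score merges bound-protein fluorescence near 667 nm with spot signal-to-noise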
- runConditions: small-molecule microarray binding, higher = more signal

molecule	composite z-score
O=C1O[C@H](c2ccccc2)[C@H](c2ccccc2)N2[C@H]1[C@@H](C(=O)O)[C@]1(C(=O)Nc3ccc(C#CC4=CCCCC4)cc31)[C@H]2c1ccc(OCCO)cc1	0.302
COC(=O)C[C@H]1O[C@]2(C(=O)N(Cc3ccccc3)c3ccc(NC(C)=O)cc32)[C@@H](C)[C@@H]1[Si](C)(C)c1ccc(OC)cc1	0.25
C[C@H]1NC(=O)[C@H](Cc2ccccc2)NC(=O)[C@@]23C(=O)N[C@@H](Cc4ccccc4)C2[C@H](C)[C@@]2(C)O[C@H]2C3/C=C/C/C=C\CNC1=O (stereo partly drawn)	1.45

====

Listed molecules paired with reported composite z-score
- assayText: small-molecule microarray binders of probe aShh, primary screen, biochemical, biotinylated probe, 635/667 nm fluorescence (AID 1114);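 further: probe is biotin-labelled aShh protein from a stem cell growth factor screen; measures binding of labelled protein to compounds printed on the slide; score merges feature fluorescence at 667 nm with signal-to-noise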
- runConditions: higher = more signal
readoutType: composite z-score

molecule	readoutType	endpointResult
COc1ccc([Si](C)(C)[C@H]2[C@H](CCn3cc(CCO)nn3)O[C@@]3(C(=O)N(Cc4ccc(N5CCOC5=O)cc4)c4ccccc43)[C@@H]2C)cc1	composite z-score	0.0469
C=CC[C@@]1(C(=O)O)N=C(c2ccc(OCCCO)cc2)O[C@@H]1c1ccccc1N=[N+]=[N-]	composite z-score	-0.181
CN1C(=O)C2C(C1=O)C1C=C(CCCO)C2C(c2cccs2)N1C (stereo unspecified)	composite z-score	0.469
COCCOC(=O)N1C(=O)[C@@]2(c3cc(C#CCC(C(=O)OC)C(=O)OC)ccc31)[C@H](C(=O)N1CCN(c3ncccn3)CC1)[C@H]1C(=O)O[C@H](c3ccccc3)[C@H](c3ccccc3)N1[C@@H]2c1ccc(OCCO)cc1	composite z-score	-0.2
C=CCOC(=O)[C@@H]1[C@H]2C(=O)O[C@H](c3ccccc3)[C@H](c3ccccc3)N2[C@H](c2ccc(OCCOC(=O)[C@@H]3C[C@@H]4C(=O)N[C@@H](Cc5ccccc5)C(=O)N4[C@@H]3c3cccc(OCCO)c3)cc2)[C@@]12C(=O)Nc1ccc(I)cc12	composite z-score	-0.0211
COCCCNC(=O)[C@@]1(CCC(=O)OC(C)(C)C)N=C(c2ccc(OCCCO)cc2)O[C@H]1c1ccccc1CN=[N+]=[N-]	composite z-score	0.0898
O=C1OCCC=C[C@H]2OC34C=CCN(Cc5ccccc5)C(=O)[C@H]3N(CCCO)C(=O)[C@@H]4C12 (stereo partly specified)	composite z-score	-0.206
CCCC[C@H]1OB(O)C[C@H]2C1=C(C)C[C@H]1C(=O)N(Cc3ccccc3)C(=O)[C@H]12	composite z-score	-0.0396
COc1ccc(C#Cc2ccc3c(c2)[C@]2(C(=O)N3)[C@H](c3ccc(O)cc3)N3[C@H](c4ccccc4)[C@H](c4ccccc4)OC(=O)[C@H]3[C@@H]2C(=O)N2CCCCCCC2)cc1	composite z-score	2.15
COc1ccc(C#Cc2ccc3c(c2)[C@]2(C(=O)N3)[C@H](c3ccc(O)cc3)N3[C@H](c4ccccc4)[C@H](c4ccccc4)OC(=O)[C@H]3[C@@H]2C(=O)NC[C@H](O)c2ccccc2)cc1	composite z-score	-0.138
COC(=O)[C@@]1(Cc2ccc(OC)cc2)[C@H]2c3cc(C(=O)N4CCCC4)n(Cc4cc(F)cc5c4OCOC5)c3C[C@H]2CN1C(=O)c1ccccc1	composite z-score	0.108

====

- System: PRMT1 (protein arginine N-methyltransferase 1)
- assayText: PRMT1 binders on small-molecule microarrays, primary screen, biochemical, small-molecule microarray, 635 nm fluorescence (AID 1088);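 further: binding of Prmt1 protein to compounds spotted on small-molecule microarray slides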
- runConditions: small-molecule microarray binding, higher = more signal
Given measured composite z-score, output Criterion met if it is greater than or equal to 0.3 and Criterion not met if not.

compound	className
O=C1O[C@H](c2ccccc2)[C@H](c2ccccc2)N2[C@H]1[C@@H](C(=O)NC[C@H](O)c1ccccc1)[C@]1(C(=O)Nc3ccc(C#CCCO)cc31)[C@H]2c1ccc(O)cc1	Criterion not met
CC(C)OC(=O)CC(=O)CC(O)c1ccc(C#N)cc1 (stereo not given)	Criterion not met
COCCOC(=O)N1C(=O)[C@@]2(c3ccccc31)[C@H](c1ccc(O)cc1)N1[C@H](c3ccccc3)[C@H](c3ccccc3)OC(=O)[C@H]1[C@@H]2C(=O)N1CCc2cc(OC)c(OC)cc2C1	Criterion met
CCOc1cc(C(O)C2C=CC3C(=O)N(c4ccccc4)C(=O)C3N2Nc2ccc([N+](=O)[O-])cc2)ccc1O (stereo not given)	Criterion met
CC(C)C[C@@H]1NC(=O)[C@H]2C[C@@H](C(=O)NCCCCCNC(=O)CS)[C@@H](c3cccc(OCCO)c3)N2C1=O	Criterion met
CC1CC/C=C\[C@H]2OC34C=CCN(Cc5ccccc5)C(=O)[C@H]3N(CCCCCO)C(=O)[C@@H]4C2C(=O)O1 (stereo not given in full)	Criterion not met
C=CCOC(=O)[C@H]1[C@@H]2C(=O)O[C@@H](c3ccccc3)[C@@H](c3ccccc3)N2[C@@H](c2ccc(OCCOC(=O)[C@@H]3C[C@@H]4C(=O)NCC(=O)N4[C@@H]3c3ccc(O)cc3)cc2)[C@]12C(=O)Nc1ccccc12	Criterion met
C=CCC(OC(C)=O)[C@@H]1[C@@H](N(Cc2ccc(-c3cccc(C(F)(F)F)c3)o2)C(=O)c2ccc(C)cc2)c2cc(OCCCO)ccc2N1C(=O)c1ccc(-c2ccccc2)cc1 (stereo not given in full)	Criterion not met
COCCOC(=O)N1C(=O)[C@@]2(c3cc(C#CCC(C(=O)OC)C(=O)OC)ccc31)[C@H](c1ccccc1OCCO)N1[C@H](c3ccccc3)[C@H](c3ccccc3)OC(=O)[C@H]1[C@@H]2C(N)=O	Criterion met
